// Hepatocyte growth factor receptor (Homo sapiens, UniProt P08581) IC50 records
Give your result in µM as a bare value.

Cc1ccc(-c2ccnc(C(=O)Nc3ccc(Oc4ccnc5[nH]ccc45)c(F)c3)n2)cc1 has a reported IC50 of 3.4

Please look at the following compound next.
O=C(Nc1ccc(Oc2ccnc3[nH]ccc23)c(F)c1)c1cc(-c2ccccc2)ncn1 has a reported IC50 of 0.98

* * *

Recorded IC50, one value per entry.
- Assay procedure: cells
- Condition notes: Homo sapiens, PC-3, 72 h
- Description: Cytotoxicity against human PC3 cells after 72 hrs by MTT assay
Give your result in µM as a bare value.

COc1ccc(-c2ccnc(C(=O)Nc3ccc(Oc4ccnc5[nH]ccc45)cc3)n2)cc1 has a reported IC50 of 17.3

New cases:
O=C(Nc1ccc(Oc2ccnc3[nH]ccc23)c(F)c1)c1nccc(-c2ccc([N+](=O)[O-])cc2)n1 has a reported IC50 of 12.1

O=C(Nc1ccc(Oc2ccnc3[nH]ccc23)c(F)c1)c1cc(-c2ccc(Br)cc2)ncn1 has a reported IC50 of 11.3

Cc1ccc(-c2cc(C(=O)Nc3ccc(Oc4ccnc5[nH]ccc45)cc3)ncn2)cc1 has a reported IC50 of 9.88

O=C(Nc1ccc(Oc2ccnc3[nH]ccc23)c(F)c1)c1nccc(-c2ccc(Cl)cc2)n1 has a reported IC50 of 14.6

* * *

- Assay procedure: cells
- Condition notes: Homo sapiens, PC-3, 72 h
Recorded pIC50, one value per entry.
// pIC50: -log10(molar conc.)

Below, each entry is followed by its recorded pIC50 result.
O=C(Nc1ccc(Oc2ccnc3[nH]ccc23)c(F)c1)c1cc(-c2ccc(Cl)cc2)ncn1 has a reported pIC50 of 5.49

O=C(Nc1ccc(Oc2ccnc3[nH]ccc23)cc1)c1nccc(-c2cccc(Cl)c2)n1 has a reported pIC50 of 5.11

Cc1ccc(-c2cc(C(=O)Nc3ccc(Oc4ccnc5[nH]ccc45)c(F)c3)ncn2)cc1 has a reported pIC50 of 4.60

COc1ccc(-c2cc(C(=O)Nc3ccc(Oc4ccnc5[nH]ccc45)cc3)ncn2)cc1 has a reported pIC50 of 5.01

O=C(Nc1ccc(Oc2ccnc3[nH]ccc23)cc1)c1cc(-c2ccc(Cl)cc2)ncn1 has a reported pIC50 of 4.81

O=C(Nc1ccc(Oc2ccnc3[nH]ccc23)c(F)c1)c1cc(-c2ccccc2)ncn1 has a reported pIC50 of 7.40

Cc1ccc(-c2ccnc(C(=O)Nc3ccc(Oc4ccnc5[nH]ccc45)c(F)c3)n2)cc1 has a reported pIC50 of 6.28

O=C(Nc1ccc(Oc2ccnc3[nH]ccc23)cc1)c1cc(-c2ccc(Br)cc2)ncn1 has a reported pIC50 of 5.58

Please look at the following molecule next.
O=C(Nc1ccc(Oc2ccnc3[nH]ccc23)c(F)c1)c1cc(-c2ccc(C(F)(F)F)cc2)ncn1 has a reported pIC50 of 5.39

The reported measurements were obtained from ChEMBL document CHEMBL3774366.
